Reference source for all entries: paper PMC13016609

test system: T1, TFAM (no MTS) (Homo sapiens, UniProt Q00059 43-246)
T1 sequence: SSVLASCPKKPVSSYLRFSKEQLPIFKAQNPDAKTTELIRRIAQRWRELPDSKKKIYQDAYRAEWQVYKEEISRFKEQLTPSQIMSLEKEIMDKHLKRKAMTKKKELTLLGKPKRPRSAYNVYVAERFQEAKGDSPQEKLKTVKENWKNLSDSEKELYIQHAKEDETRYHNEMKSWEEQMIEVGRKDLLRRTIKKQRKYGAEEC
assay: fluorescence anisotropy; Hill n 2.77±0.17; FP: 25 mM HEPES, 10 mM Mg(OAc)2, 25 mM NaOAc, 75 mM KOAc, pH 7.5, 1 nM DNA, TFAM 0-15 nM diluted on ice (read temperature not stated); AFM oligos: on ice, 2 min
experimental setup: protein: recombinant; label: 5' 6-FAM on strand 1; blunt
observable: Kd (nM)

binder | observable | units symbol | endpoint result
COX2_229 (dsDNA) DNA 1: GCCCCCATTCGTATAATAATTACATCACAAGAC DNA 2: GTCTTGTGATGTAATTATTATACGAATGGGGGC | Kd | nM | 3.94
